Target: T1, AnkG ANK repeats R1–6 (truncation of AnkG_repeats with C-terminal capping sequence) (rat | human)
T1 chain: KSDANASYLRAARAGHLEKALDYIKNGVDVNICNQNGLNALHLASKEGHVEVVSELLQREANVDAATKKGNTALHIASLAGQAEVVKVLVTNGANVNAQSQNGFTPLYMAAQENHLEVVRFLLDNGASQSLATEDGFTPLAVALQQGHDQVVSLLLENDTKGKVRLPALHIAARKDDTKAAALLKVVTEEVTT
Assay: ITC
Quantity: pKd
Entry type: numeric. Quantity: pKd, the -log10 of concentration in molar units.

Recorded pKd of TVTVPIAVGESDFENLNTEEFSSESDM (domain or fragment) [Nav1.2_ABD-C (27-residue motif of loop 2, residues 1103–1129)] , please.
5.64
